Tested on: fed male ddY mice
Experiment: Restraint stress-induced defication model
Format: in vivo
Settings: intraperitoneal, number of feces excreted during 1 hour of restraint
parameterMeasured: 50% inhibition dose for restraint stress-induced defication
# output: numeric value plus its unit

Use the examples below as a reference point.
| compound | targetOfAssay | recordedMeasurement |
| --- | --- | --- |
| O=C(/C=C/c1ccc(-c2ccc([N+](=O)[O-])cc2)o1)c1ccccc1 | fed male ddY mice | 34.3 mg/kg |
| COc1cc(OC)cc(C(=O)Nc2sc3c(c2-c2nc4ccccc4s2)CCN(C(C)C)C3)c1.Cl | fed male ddY mice | 15.6 mg/kg |
| COc1ccc(N(CC(=O)Nc2ccc(Cl)cc2C)S(=O)(=O)c2ccccc2)cc1OC | fed male ddY mice | 13.5 mg/kg |
| CC(C)CC(CN[C@@H](CC(C)C)C(N)=O)NC(=O)[C@H](Cc1cnc[nH]1)NC(=O)CNC(=O)[C@@H](NC(=O)C(C)NC(=O)[C@H](Cc1c[nH]c2ccccc12)NC(=O)[C@H](CCC(N)=O)NC(=O)[C@H]1Cc2c([nH]c3ccccc23)CN1)C(C)C (some centres unmarked) | fed male ddY mice | 5.2 mg/kg |

We next turn to a different compound, shown below.
Prompt: Could you tell me which 50% inhibition dose for restraint stress-induced defication is on file for O=C(Nc1ccc(S(=O)(=O)N2CCCCC2c2cccnc2)cc1)c1cc([N+](=O)[O-])ccc1Cl (centres unmarked) ?
Completion: 19.0 mg/kg
